Target: α4β3δ GABAA receptor (Homo sapiens, UniProt P28472+P48169)
Sequence (P48169 36-554): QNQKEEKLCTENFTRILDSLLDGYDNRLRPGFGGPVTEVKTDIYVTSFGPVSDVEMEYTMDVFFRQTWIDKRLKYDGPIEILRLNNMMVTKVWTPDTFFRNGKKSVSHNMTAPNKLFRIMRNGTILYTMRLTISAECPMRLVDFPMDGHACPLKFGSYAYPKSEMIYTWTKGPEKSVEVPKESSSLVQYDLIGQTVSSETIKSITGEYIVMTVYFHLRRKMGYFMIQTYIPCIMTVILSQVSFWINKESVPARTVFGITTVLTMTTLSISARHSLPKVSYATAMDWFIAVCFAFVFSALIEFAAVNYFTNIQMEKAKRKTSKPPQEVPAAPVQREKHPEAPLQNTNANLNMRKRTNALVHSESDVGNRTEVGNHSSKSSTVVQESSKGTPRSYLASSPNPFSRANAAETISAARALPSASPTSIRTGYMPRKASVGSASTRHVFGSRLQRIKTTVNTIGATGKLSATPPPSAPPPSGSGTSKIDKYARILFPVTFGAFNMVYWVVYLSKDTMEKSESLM
Sequence (P28472 26-473): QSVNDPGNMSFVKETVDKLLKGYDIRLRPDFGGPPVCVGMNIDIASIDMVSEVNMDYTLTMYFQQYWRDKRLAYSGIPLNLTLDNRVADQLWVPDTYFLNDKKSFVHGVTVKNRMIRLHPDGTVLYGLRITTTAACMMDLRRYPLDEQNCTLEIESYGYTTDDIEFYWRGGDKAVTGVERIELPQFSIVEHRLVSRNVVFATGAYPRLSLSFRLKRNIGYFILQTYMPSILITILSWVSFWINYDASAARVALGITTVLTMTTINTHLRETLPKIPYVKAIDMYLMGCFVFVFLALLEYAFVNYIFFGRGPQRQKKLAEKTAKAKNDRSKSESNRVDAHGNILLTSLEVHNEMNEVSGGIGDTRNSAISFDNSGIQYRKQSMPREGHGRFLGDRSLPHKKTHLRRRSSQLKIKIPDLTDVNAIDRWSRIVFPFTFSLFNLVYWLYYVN
Sequence (O14764 17-452 partner limits assumed): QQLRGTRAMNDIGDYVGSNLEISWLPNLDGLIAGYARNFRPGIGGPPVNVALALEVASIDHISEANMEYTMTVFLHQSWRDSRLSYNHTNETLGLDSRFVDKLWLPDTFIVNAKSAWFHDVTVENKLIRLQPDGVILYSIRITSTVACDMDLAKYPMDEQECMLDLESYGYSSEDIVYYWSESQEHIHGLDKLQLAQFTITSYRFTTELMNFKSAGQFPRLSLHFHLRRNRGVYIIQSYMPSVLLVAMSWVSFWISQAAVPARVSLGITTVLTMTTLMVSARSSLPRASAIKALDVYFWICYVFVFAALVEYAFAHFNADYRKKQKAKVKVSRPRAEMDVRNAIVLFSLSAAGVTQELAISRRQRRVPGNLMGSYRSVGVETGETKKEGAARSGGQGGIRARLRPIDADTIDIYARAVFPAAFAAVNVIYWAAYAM
Experiment: Whole cell patch clamp, GABA-evoked currents, α4β3δ in CHO cells
Type: cell-based
reported-endpoint: pEC50
Numbers only, as −log10 of the molar value.

Consider the molecule shown here: C[C@@]1(O)CC[C@H]2[C@H](CC[C@@H]3[C@@H]2CC[C@]2(C)[C@@H](C(=O)Cn4cc(C#N)cn4)CC[C@@H]32)C1 [zuranolone] What is its recorded pEC50?
6.93

* * *

Assay: Brain and plasma pharmacokinetics after single IP or PO dose
Type: in vivo, mouse
Settings: male, CD-1, mouse, plasma, ip, 10 mg/kg
reported-endpoint: Cmax (ng/mL)
Answers are plain numbers, in ng/mL.

Consider the molecule shown here: C[C@@]1(O)CC[C@H]2[C@H](CC[C@@H]3[C@@H]2CC[C@]2(C)[C@@H](C(=O)Cn4cc(C#N)cn4)CC[C@@H]32)C1 [zuranolone] What is its recorded Cmax?
3200
